The reported measurements were obtained from paper PMC7017424.

Substrate: O=[N+]([O-])c1ccc(Cl)c2nonc12
run_description: purified protein
Assay type: biochemical, Oryza sativa
details: 1.0 mM GSH fixed, NBD-Cl 0.1-1.0 mM, 25 °C, apparent Km, Km above tested range
measured_endpoint: kcat/Km (M⁻¹ s⁻¹)
Answers are plain numbers, in M⁻¹ s⁻¹.

Exercise: # query: kcat/Km of entry OsGSTU17 (Oryza sativa Japonica Group; L112A) (protein, about 25 kDa subunit; dimeric enzyme; mutants L112A and W165A expressed at 20 °C) MAADKGVKVFGMWASPMAIRVEWALRLKGVDYEYVDEDLANKSEALLRHNPVTKKVPVLVHDGKPLAESTVIVEYIDEAWKHGYPIMPSDPFDRAQARFWARFAEEKCNAAAYPIFMTTGEEQRKLVHEAQQCLKTLETALEGKKFFGGDAFGYLDIVTGWFAYWLPVIEEACGVEVVTDEALPLMKAWFDRVLAVDAVKAVLPPRDKLVALNKARREQILSA
Solution: 1180
